# inhibition annotations
- System: Hepacivirus hominis
- assay.procedure: Inhibition of HCV NS3/4A protease at 50 ug/ml after 30 mins

| smiles.input | target.or.system | unit.info | inhibition |
| --- | --- | --- | --- |
| O=C(COc1ccc(/C=C/C(=O)c2c[nH]c3ccccc23)cc1)Nc1ncncc1C(=O)O | Hepacivirus hominis | % | 57.2 |
| N#Cc1cncnc1NC(=O)COc1ccc(/C=C/C(=O)c2c[nH]c3ccccc23)cc1 | Hepacivirus hominis | % | 29.4 |
| O=C(COc1ccc(/C=C/C(=O)c2c[nH]c3ccccc23)cc1)N[C@@H](Cc1ccc(O)cc1)C(=O)O | Hepacivirus hominis | % | 81.2 |
| O=C(COc1ccc(/C=C/C(=O)c2c[nH]c3ccccc23)cc1)N[C@@H](Cc1c[nH]c2ccccc12)C(=O)O | Hepacivirus hominis | % | 67.2 |
| O=C(O)COc1ccc(/C=C/C(=O)c2c[nH]c3ccccc23)cc1 | Hepacivirus hominis | % | 22.9 |
| O=C(COc1ccc(/C=C/C(=O)c2c[nH]c3ccccc23)cc1)Nc1ccc(C(=O)c2ccccc2C(=O)O)cc1 | Hepacivirus hominis | % | 72 |
| O=C(COc1ccc(/C=C/C(=O)c2c[nH]c3ccccc23)cc1)N[C@@H](Cc1ccccc1)C(=O)O | Hepacivirus hominis | % | 82.4 |
| O=C(COc1ccc(/C=C/C(=O)c2c[nH]c3ccccc23)cc1)N[C@@H](Cc1c[nH]cn1)C(=O)O | Hepacivirus hominis | % | 48.5 |

* * *

- Test system: Hepacivirus hominis
- assay.procedure: Inhibition of HCV NS3/4A protease at 100 ug/ml after 30 mins
# inhibition annotations

| smiles.input | inhibition [%] |
| --- | --- |
| O=C(COc1ccc(/C=C/C(=O)c2c[nH]c3ccccc23)cc1)N[C@@H](Cc1c[nH]cn1)C(=O)O | 78.7 |
| O=C(COc1ccc(/C=C/C(=O)c2c[nH]c3ccccc23)cc1)Nc1ccc(C(=O)c2ccccc2C(=O)O)cc1 | 80.9 |
| O=C(O)COc1ccc(/C=C/C(=O)c2c[nH]c3ccccc23)cc1 | 51.8 |
| O=C(COc1ccc(/C=C/C(=O)c2c[nH]c3ccccc23)cc1)N[C@@H](Cc1ccccc1)C(=O)O | 84.7 |
| O=C(COc1ccc(/C=C/C(=O)c2c[nH]c3ccccc23)cc1)N[C@@H](Cc1c[nH]c2ccccc12)C(=O)O | 82.9 |
| O=C(COc1ccc(/C=C/C(=O)c2c[nH]c3ccccc23)cc1)N[C@@H](Cc1ccc(O)cc1)C(=O)O | 83.9 |
| N#Cc1cncnc1NC(=O)COc1ccc(/C=C/C(=O)c2c[nH]c3ccccc23)cc1 | 58.4 |
| O=C(COc1ccc(/C=C/C(=O)c2c[nH]c3ccccc23)cc1)Nc1ncncc1C(=O)O | 73.7 |

* * *

- Test system: Hepacivirus hominis
- assay.procedure: Inhibition of HCV NS3/4A protease at 10 ug/ml after 30 mins
Returns 1 if the recorded inhibition is greater than or equal to 40%, and 0 otherwise.

| smiles.input | qualitative.label |
| --- | --- |
| O=C(COc1ccc(/C=C/C(=O)c2c[nH]c3ccccc23)cc1)N[C@@H](Cc1c[nH]cn1)C(=O)O | 0 |
| O=C(COc1ccc(/C=C/C(=O)c2c[nH]c3ccccc23)cc1)N[C@@H](Cc1ccccc1)C(=O)O | 1 |
| O=C(COc1ccc(/C=C/C(=O)c2c[nH]c3ccccc23)cc1)N[C@@H](Cc1ccc(O)cc1)C(=O)O | 1 |
| O=C(COc1ccc(/C=C/C(=O)c2c[nH]c3ccccc23)cc1)Nc1ncncc1C(=O)O | 0 |
| O=C(COc1ccc(/C=C/C(=O)c2c[nH]c3ccccc23)cc1)N[C@@H](Cc1c[nH]c2ccccc12)C(=O)O | 1 |

These measurements were taken from ChEMBL document CHEMBL1641595.
